For reference, MIC measured on K. pneumoniae ATCC13883:
Quantity: MIC (µg/mL)

In [3]: df
Out[3]:
                                   compound  quantity  reported_measurement
0  CC(CNC1CC(c2ccc(-c3ccc(C#C[C@@H](CO)n4ccnc4[C@H](C)O)cc3)cc2)C1)C(=O)O (stereo partly shown)       MIC                     8
1  C[C@H](O)c1nccn1[C@@H](C#Cc1ccc(-c2ccc(OCC(CO)CO)cc2)cc1)CO       MIC                     8
2  C[C@H](O)c1nccn1[C@@H](C#Cc1ccc(-c2ccc(CO[C@@H]3C[C@H]3N)cc2)cc1)CO (racemic)       MIC                     4
3  C[C@H](O)c1nccn1[C@@H](C#Cc1ccc(-c2ccc(O[C@@H]3COC[C@H]3O)cc2)cc1)CCO       MIC                     2

###

Tested on: K. pneumoniae ATCC13883
Quantity: log10(MIC) (log10 of the value in µg/mL)

>>> print(df.to_string())
                                   compound    quantity  reported_measurement
0  C[C@H](O)c1nccn1[C@@H](C#Cc1ccc(-c2ccc(OC[C@@H](O)CO)cc2)cc1)CO  log10(MIC)                  0.60
1  C[C@H](O)c1nccn1[C@@H](C#Cc1ccc(-c2ccc(O[C@H]3COC[C@@H]3O)cc2)cc1)CO (relative stereo) [Compound 10]  log10(MIC)                  0.30
2  C[C@H](O)c1nccn1[C@@H](C#Cc1ccc(-c2ccc(O[C@H]3COC[C@@H]3O)cc2)cc1)CO (racemic) [Compound 46]  log10(MIC)                  0.30
3  C[C@H](O)c1nccn1CC#Cc1ccc(-c2ccc(C3CC(NCCO)C3)cc2)cc1 (some centres unmarked)  log10(MIC)                  0.00
4  C[C@H](O)c1nccn1[C@@H](C#Cc1ccc(-c2ccc(O[C@H]3COC[C@@H]3N)cc2)cc1)CO (relative stereo)  log10(MIC)                  0.00
5  C[C@H](O)c1nccn1CC#Cc1ccc(-c2ccc(C3CC(NCCC#N)C3)cc2)cc1 (some centres unmarked)  log10(MIC)                 -0.60
6  C[C@H](O)c1nccn1[C@@H](C#Cc1ccc(-c2ccc(C3CC(N[C@H]4COC[C@@H]4O)C3)cc2)cc1)CO (some centres unmarked)  log10(MIC)                  0.90
7  C[C@H](O)c1nccn1[C@@H](C#Cc1ccc(-c2ccc(C3CC(NCC(F)F)C3)cc2)cc1)CO (some centres unmarked)  log10(MIC)                 -0.60

###

MIC, K. pneumoniae ATCC13883: measured values
Quantity: MIC (µg/mL)

                                   compound             assay_target  readout_unit  reported_measurement
0  C[C@H](O)c1nccn1[C@@H](C#Cc1ccc(-c2ccc(C3CC(NCc4ncon4)C3)cc2)cc1)CO (stereo partly drawn)  K. pneumoniae ATCC13883         µg/mL                   0.5
1  C[C@H](O)c1nccn1[C@@H](C#Cc1ccc(-c2ccc(C(O)CO)cc2)cc1)CO (mixture of isomers)  K. pneumoniae ATCC13883         µg/mL                    16
2  C[C@H](O)c1nccn1CC#Cc1ccc(-c2ccc(OCC(N)CO)cc2)cc1 (mixture of isomers)  K. pneumoniae ATCC13883         µg/mL                     4
